# target: Mot3 (UniProt P54785)
# Sequence: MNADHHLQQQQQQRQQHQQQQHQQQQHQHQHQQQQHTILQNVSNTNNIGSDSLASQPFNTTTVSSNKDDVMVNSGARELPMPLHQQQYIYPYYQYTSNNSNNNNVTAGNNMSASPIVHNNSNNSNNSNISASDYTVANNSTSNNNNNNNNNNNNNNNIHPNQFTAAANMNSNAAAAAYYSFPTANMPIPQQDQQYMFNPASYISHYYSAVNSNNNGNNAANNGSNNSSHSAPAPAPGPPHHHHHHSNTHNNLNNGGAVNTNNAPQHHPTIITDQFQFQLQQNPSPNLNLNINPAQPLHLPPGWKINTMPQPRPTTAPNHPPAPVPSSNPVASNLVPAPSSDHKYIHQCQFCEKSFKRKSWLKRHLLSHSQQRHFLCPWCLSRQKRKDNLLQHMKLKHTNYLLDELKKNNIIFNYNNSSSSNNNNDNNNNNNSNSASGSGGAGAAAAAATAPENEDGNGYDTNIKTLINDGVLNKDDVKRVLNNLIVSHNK
# measurement_protocol: PBM E-score (8-mer binding enrichment) (E-score (-0.5 to 0.5)); higher = stronger / more preferred TF binding
# condition_parameters: protein concentration: 200 nM; construct: GST-full length
In all, about 33,000 sequences were measured (“E-score (-0.5 to 0.5)”: median about -0.035, highest 2% from about 0.34 on). Shown is part of a subset that was picked to be rich in the highest values.
observed_property: PBM E-score
Answers are plain numbers.

// known answers, use as guide
CATACACG	0.316
AACACACT	0.22
CACACGAA	0.165

Parameters: items (list). Returns: PBM E-score for each item.
1. CATACACA
2. CACACAAA

[out]
1. 0.219
2. 0.151
